# protocol.notes: Pharmacokinetics of AB.Fab variants in rabbits (HER2 Binding ELISA)
# Format: in vivo
# condition.context: Rabbit; group mean
Bridges are numbered along the chain shown (N, C = ends). Where no end group is shown, it is not given here.
test.readout: AUC (ng·h/mL)
Numbers only, in ng·h/mL.

GET /values?readout=AUC&item= AB.Fab 4D5-H4 (DICLPRWGCLWED; disulfide 3-9 (inferred); also: part of Fab heavy chain) 127000

For the 3 substances below, give their AUC values.
1. AB.Fab 4D5-H11 (DICLPRWGCL; disulfide 3-9 (inferred); also: part of Fab heavy chain)
2. AB.Fab 4D5-H8 (IEDICLPRWGCLWE; disulfide 5-11 (inferred); also: part of Fab heavy chain)
3. AB.Fab 4D5-H10 (DICLPRWGCLW; disulfide 3-9 (inferred); also: part of Fab heavy chain)

24600
232000
33700
